Data origin, for the record: paper PMC11521914

# tgt: Fructose-1,6-bisphosphatase enzyme (FBPase) (Rattus norvegicus, UniProt P19112)
# Sequence (P19112 1-363): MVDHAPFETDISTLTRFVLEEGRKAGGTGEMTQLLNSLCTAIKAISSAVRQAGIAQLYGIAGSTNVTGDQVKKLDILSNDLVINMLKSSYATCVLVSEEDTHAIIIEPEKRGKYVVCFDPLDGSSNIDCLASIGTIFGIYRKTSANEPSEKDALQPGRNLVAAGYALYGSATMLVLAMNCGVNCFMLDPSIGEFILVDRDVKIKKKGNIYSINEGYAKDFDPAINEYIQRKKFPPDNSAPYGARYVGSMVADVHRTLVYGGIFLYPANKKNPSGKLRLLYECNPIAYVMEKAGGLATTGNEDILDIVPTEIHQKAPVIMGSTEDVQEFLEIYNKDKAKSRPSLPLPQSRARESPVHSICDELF
measurement_kind: IC50 (µM)
State just the number; it will be interpreted in µM.

INPUT: I would be grateful if you could share the reported IC50 for Nc1ncnc2c1ncn2[C@@H]1O[C@H](COP(=O)(O)O)[C@@H](O)[C@H]1O.O [AMP, adenosine 5′-monophosphate monohydrate] .
OUTPUT: 95
